Target: Metabotropic glutamate receptor 2 (Homo sapiens)
Sequence (Q14416 whole entry): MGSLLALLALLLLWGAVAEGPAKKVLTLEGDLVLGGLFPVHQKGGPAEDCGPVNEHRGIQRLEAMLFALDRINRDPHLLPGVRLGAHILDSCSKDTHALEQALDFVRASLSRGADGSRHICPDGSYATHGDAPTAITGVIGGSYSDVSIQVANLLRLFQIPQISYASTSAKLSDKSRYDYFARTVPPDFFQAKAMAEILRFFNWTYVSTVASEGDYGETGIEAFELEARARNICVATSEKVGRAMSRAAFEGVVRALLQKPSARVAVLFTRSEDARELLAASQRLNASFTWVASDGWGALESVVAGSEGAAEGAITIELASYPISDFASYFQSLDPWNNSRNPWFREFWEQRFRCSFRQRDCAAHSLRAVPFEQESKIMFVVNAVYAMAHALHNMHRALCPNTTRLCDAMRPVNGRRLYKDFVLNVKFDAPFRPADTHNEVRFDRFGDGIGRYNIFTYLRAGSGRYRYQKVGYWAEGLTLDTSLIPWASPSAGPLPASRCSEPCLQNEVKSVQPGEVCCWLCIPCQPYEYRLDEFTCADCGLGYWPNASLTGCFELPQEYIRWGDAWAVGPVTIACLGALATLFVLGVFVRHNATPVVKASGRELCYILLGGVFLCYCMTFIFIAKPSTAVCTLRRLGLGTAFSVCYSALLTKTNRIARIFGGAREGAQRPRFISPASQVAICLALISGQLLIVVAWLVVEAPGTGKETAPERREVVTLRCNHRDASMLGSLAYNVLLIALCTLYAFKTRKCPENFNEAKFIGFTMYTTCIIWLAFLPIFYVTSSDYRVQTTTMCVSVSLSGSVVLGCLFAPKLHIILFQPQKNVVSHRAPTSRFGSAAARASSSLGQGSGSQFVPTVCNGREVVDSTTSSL
Assay: Ability to block 1S,3R-ACPD-induced inhibition of forskolin stimulated cyclic-AMP in non-neuronal cell line expressing human Metabotropic glutamate receptor 2
Type: functional
pIC50: −log10 of the molar value.
# cutoff 6 applies to pIC50; >= gives class 1, < gives class 0

COMPOUND	CATEGORY
N[C@@](CCC(c1ccccc1)c1ccccc1)(C(=O)O)C1C[C@@H]1C(=O)O (stereo not given in full)	class 0
NC(CCc1cccc2ccccc12)(C(=O)O)[C@H]1C[C@@H]1C(=O)O (stereo not given in full)	class 1
NC(CCC12CC3CC(CC(C3)C1)C2)(C(=O)O)[C@H]1C[C@@H]1C(=O)O (stereo not given in full)	class 1
CCC(N)(C(=O)O)[C@H]1C[C@@H]1C(=O)O (stereo not given in full)	class 0
N[C@@](CC1CCC1)(C(=O)O)C1C[C@@H]1C(=O)O (stereo not given in full)	class 0
N[C@@](CC(c1ccccc1)c1ccccc1)(C(=O)O)[C@H]1C[C@@H]1C(=O)O	class 0
